Assay: protein stability index of a GFP-peptide fusion (yeast GPS) (PSI 1-4); higher = more stable; sorted into four equal gates, so the index is relative within each strain
Conditions: pdr5∆
Here the recorded protein stability index is given for each entry.

{"sequenceRecord": "DSLASELTLAEQQVKEA [SMC4]", "protein stability index": 3.53}
{"sequenceRecord": "ELALIEEAYDNPHDTLN [PRP8]", "protein stability index": 3.3}
{"sequenceRecord": "AENQTGESTVESEKLVT [RPC82]", "protein stability index": 3.29}
{"sequenceRecord": "STGCVVGLSQPDAKIQV [YMR129W/POM152]", "protein stability index": 2.47}
{"sequenceRecord": "TLSTHSTTTSVNGSTTA [SIN4]", "protein stability index": 3.04}
{"sequenceRecord": "DDETPSCEVEEIGLLGG [SNU114]", "protein stability index": 3.35}
{"sequenceRecord": "IINSTALMKEKDIRSTL [RPC82]", "protein stability index": 3}
{"sequenceRecord": "GGIETILEHTLFKGTGF [PRP8]", "protein stability index": 3.28}
{"sequenceRecord": "IDEIDAIGTKRYDSNSG [RPT2]", "protein stability index": 2.26}
{"sequenceRecord": "NSNQQQNPKLFQTIFSK [SIN4]", "protein stability index": 2.19}
{"sequenceRecord": "EDPNSAAFDEVEYKLTF [DIS3]", "protein stability index": 1.6}
{"sequenceRecord": "VKVLAATNRVDVLDPAL [RPT5]", "protein stability index": 2.84}
{"sequenceRecord": "VGIDTHTATDIYQTLIA [SNF2]", "protein stability index": 2.03}
{"sequenceRecord": "YLFHNDRIIHTWRTQLA [ECM29]", "protein stability index": 1.77}

* * *

Assay: protein stability index of a GFP-peptide fusion (yeast GPS) (PSI 1-4); higher = more stable; sorted into four equal gates, so the index is relative within each strain
Conditions: ubr1∆
Param threshold (3) applies to protein stability index; output Condition met when value >= threshold, Condition not met when value < threshold.

{"sequenceRecord": "NLRRHSDIVLDKKVTLI [SIN4]", "classAssignment": "Condition not met"}
{"sequenceRecord": "TLKIHLKKFLQEKMDPN [IRR1]", "classAssignment": "Condition not met"}
{"sequenceRecord": "MERFSVLCNSNISKSRA [RRP6]", "classAssignment": "Condition not met"}
{"sequenceRecord": "LAHVDQIVDIRNKRAVQ [YJL039C/NUP192]", "classAssignment": "Condition not met"}
{"sequenceRecord": "NSTHLLPLQPIEIDYTV [SNF12]", "classAssignment": "Condition not met"}
{"sequenceRecord": "KVEYKIVHDDPASDDIL [ITC1]", "classAssignment": "Condition met"}
{"sequenceRecord": "PTTMVTNQKDTNDHVDK [ISW2]", "classAssignment": "Condition not met"}
{"sequenceRecord": "IEEAKSIRRQDYINELS [REC8]", "classAssignment": "Condition met"}
{"sequenceRecord": "YTYLYVRMLASPMLYKV [BRR2]", "classAssignment": "Condition not met"}
{"sequenceRecord": "VYLTAVLEYLAAEILEL [HTA1]", "classAssignment": "Condition not met"}
{"sequenceRecord": "SDESIERLMTWKFKSLI [RRI2]", "classAssignment": "Condition not met"}
{"sequenceRecord": "ERFQVMVLRKQKRYTVK [RPL14A]", "classAssignment": "Condition not met"}
